// data source = the supplement of paper PMC9170038

Each item that follows carries a reported apparent KD of MS2 coat protein.
tested on: MS2 coat protein; test: apparent KD of MS2 coat protein, switch OFF state (with FMN for OFF switches, without FMN for ON switches); designed switch direction (-1 OFF switch, 1 ON switch): -1; higher = weaker reporter binding; conditions: FMN input: 0 or 200 uM; Eterna round: R93 (includes R88 designs)
TEST_READOUT: apparent KD of MS2 coat protein (µM)

CONSTRUCT_SEQUENCE: AAGGGACAUGAGGAUCACCCAUGUCAGGAUAUGCAAAUAACAAACAACAAACAACAAAGCAGAAGGGACAAAAA [Mat - Exclusion 1 - Eli mod - D53]
VALUE_REPORTED: 0.0248
//
CONSTRUCT_SEQUENCE: AAAAACUGAGGAUAUACUUUGGGAAAAGAAAAGAUGAUGUUACAUGAGGAUCACCCAUGUAGAAGGCAGAAAAA [Mat - Exclusion 2 - Mod - D154]
VALUE_REPORTED: 0.043
//
CONSTRUCT_SEQUENCE: AAAAGUAGAGGAUAUACAUGAGGAUCACCCAUGUAGAAAGGAAGUAUAUAUAUGGCGUGUAGAAGGCUGCAUGA [Mat - Mod of Nando]
VALUE_REPORTED: 0.028
//
CONSTRUCT_SEQUENCE: AAUUCACAUGAGGAUCACCCAUGUAAGGAUAUCGAAAAAAAACUAAACAAAAAACAAACGAGAAGGUACAAAAA [Exclusion 1 design 5]
VALUE_REPORTED: 0.0316
//
CONSTRUCT_SEQUENCE: GAAAAGGCAGGAUAUACAGGAUAUAGAAGGAGGAUAUAGAGACAUGAGGAUCACCCAUGUAGAAGGGCCAAAAG [Diamond 80]
VALUE_REPORTED: 0.113
//
CONSTRUCT_SEQUENCE: AAGAUGUCAGGAUAUGCUUGUCGUCACAAAAGUGAUGACGAGCAGAAGGGACAUGAGGAUCACCCAUGUAAAGA [JL eternac mod 3]
VALUE_REPORTED: 0.303
//
CONSTRUCT_SEQUENCE: AAAGGACGAGGAUAUACAUGAGGAUCACCCAUGUAAAAAACAUAGUAAAAGUGCUUGUGUAGAAGGCGUCCAAA [Meechl Ex3 2 R2 v9]
VALUE_REPORTED: 0.195
//
CONSTRUCT_SEQUENCE: AAGAAGUCAGGAUAUACAAAAUAAAAGAAAAGAAAGAAAGAACAUGAGGAUCACCCAUGUAGAAGGGACAAGAA [Nerikare]
VALUE_REPORTED: 0.0374
//
CONSTRUCT_SEQUENCE: AAAAAACAUGAGGAUCACCCAUGUAAGGAUAUCGUGCAGAAAAAAAAAAAAAACUGCACGAGAAGGUACAAGGA [Brourd - Exclusion 1 - Sub 1]
VALUE_REPORTED: 0.0627
//
CONSTRUCT_SEQUENCE: AAGAAGUGAGGAUAUCGAAGACAGACGAAAAGUCUGUCAAACGAGAAGGCACAUGAGGAUCACCCAUGUGGAAG [Mat - Exaclusion 4 - Eli mod - D79]
VALUE_REPORTED: 0.0368
//
CONSTRUCT_SEQUENCE: GGUUGUGGAGGAUAUACAUGAGGAUCACCCAUGUGAGAGAAAAAAGUGAGAAAGAAAAGUAGAAGGUCAUGACG [salish99-ex3-65]
VALUE_REPORTED: 0.0468
//
CONSTRUCT_SEQUENCE: AACAGACAUGAGGAUCACCCAUGUGAGGAUAUGGCAAUCGAUAGAACUAGAAUGACAACCAGAAGGCACAGCAA [JR_Exc001_Sub004]
VALUE_REPORTED: 0.0863
//
CONSTRUCT_SEQUENCE: GAGAAGUGAGGAUAUCGAAGACAGACGAAAAGUCUGUCAAACGAGAAGGCACAUGAGGAUCACCCAUGUGGGAA [Mat - Exaclusion 4 - Eli mod - D76]
VALUE_REPORTED: 0.141
//
CONSTRUCT_SEQUENCE: AGUCAUACAGGAUAUACAUGAGGAUCACCCAUGUAAAUCCUAAAAAAAUGAUCCUCAUGUAGAAGGGUAUGACA [EX3 221: Super Stable 21]
VALUE_REPORTED: 0.0144
//
CONSTRUCT_SEQUENCE: AGCAAGUCAGGAUAUACGAAUAAGACAAAAGACGUGAAGGGACAUGAGGAUCACCCAUGUAGAAGGGACAAGCA [LROPPY Exclusion 2 - v01_mod Fisker]
VALUE_REPORTED: 0.0605
//
CONSTRUCT_SEQUENCE: CUCAAGUUAGGAUAUCUAAGAAAAGAAGAGAAAGAAAAGAAAGAGAAGGAACAUGAGGAUCACCCAUGUAAGAA [EteRNA is fun!]
VALUE_REPORTED: 0.0257
//
CONSTRUCT_SEQUENCE: UAAAGACAUGAGGAUCACCCAUGUGAGGAUAUCGGAGGUGACGGAGCAUCGAGUUCGGCGAGAAGGCGCAGGAA [JR_Exc001_Sub409]
VALUE_REPORTED: 0.0534
//
CONSTRUCT_SEQUENCE: AAAAACUGAGGAUAUACGAAAAAAAAAAAAAAAAAAAAAAAACAUGAGGAUCACCCAUGUAGAAGGCAGAAAAA [exclusion 02 - A]
VALUE_REPORTED: 0.0575
//
CONSTRUCT_SEQUENCE: AACAUGUCAGGAUAUGCGAAGGCGUCUGACAGACGAGGCUAGCAGAAGGGACAUGAGGAUCACCCAUGUAAAAA [Mod of Power Strip by EINando888 - changed 3 and 30 to C]
VALUE_REPORTED: 0.0488
//
CONSTRUCT_SEQUENCE: AAAAGUGGAGGAUAUACAUGAGGAUCACCCAUGUGUAAAAAUAAAAACACAAAAGAAAGUAGAAGGCCACAAAA [Ex 3 May 9]
VALUE_REPORTED: 0.0552
//
CONSTRUCT_SEQUENCE: AGCUAGUCAGGAUAUACGAAAAUGAUAGAAGACGUAAGGGAACAUGAGGAUCACCCAUGUAGAAGGGACUAGCA [Diamond 47]
VALUE_REPORTED: 0.0631
//
CONSTRUCT_SEQUENCE: CACGUACAUGAGGAUCACCCAUGUUAGGAUAUGCCGGGUAAGAGAAAACUAAAAACCCGUAGAAGGGACGAAAC [Bilbo Confounded 13 - Jieux - Exclusion 1]
VALUE_REPORTED: 0.0286
//
CONSTRUCT_SEQUENCE: GUCAGCUGAGGAUAUACAGGUGAGGCCGCAGGACAAAAUAUACAUGAGGAUCACCCAUGUAGAAGGCGGAAGAC [Vegea]
VALUE_REPORTED: 0.0445
//
CONSTRUCT_SEQUENCE: AAAAAGUGAGGAUAUACGUUAAAAAAAAAAAAAAAAAAGCGGUAGAAGGCACAUGAGGAUCACCCAUGUAAAAA [Ex4 Malc#3]
VALUE_REPORTED: 0.0347
//
CONSTRUCT_SEQUENCE: AAAAAGCGAGGAUAUACGAGUCAAAGAAAAGACAAAAAGGGACAUGAGGAUCACCCAUGUAGAAGGCGCAAAAA [Fiskers exclusion D2 62% 3]
VALUE_REPORTED: 0.0471
